Assay: Plasma levels after transdermal administration to hairless mice
Assay type: in vivo
Conditions: mouse, in vivo
Would you mind telling me the reported Peak plasma concentration of parent compound after prodrug compound of each entry?
Provide only the numeric value, understood in mg/L.

// Peak plasma concentration of parent compound after prodrug compound value for CC(=O)O.CCN(CC)CCOC(=O)C(Cl)c1ccc(C2CCCCC2)c(Cl)c1 (stereo not drawn) : 2000

// Peak plasma concentration of parent compound after prodrug compound value for CC(=O)O.CCN(CC)CCOC(=O)C(C)c1ccc(CC(C)C)cc1 (stereo not drawn) : 120

// Peak plasma concentration of parent compound after prodrug compound value for CC(=O)O.CCc1cccc2c3c([nH]c12)C(CC)(CC(=O)OCCN(CC)CC)OCC3 (stereo not drawn) : 20

// Peak plasma concentration of parent compound after prodrug compound value for CC(=O)O.CCN(CC)CCOC(=O)C(C)c1ccc2c(c1)CC(=O)c1ccccc1S2 (stereo not drawn) : 2000

// Peak plasma concentration of parent compound after prodrug compound value for CC(=O)O.CCN(CC)CCOC(=O)Cc1sc(-c2ccccc2)nc1-c1ccc(Cl)cc1 : 20

// Peak plasma concentration of parent compound after prodrug compound value for CC(=O)O.CCN(CC)CCOC(=O)Cc1cn(-c2ccccc2)nc1-c1ccc(Cl)cc1 : 20

// Peak plasma concentration of parent compound after prodrug compound value for CC(=O)O.CCN(CC)CCOC(=O)C1CCn2c(C(=O)c3ccccc3)ccc21 (stereo not drawn) : 2000

// Peak plasma concentration of parent compound after prodrug compound value for CC(=O)O.CCN(CC)CCOC(=O)c1cc(-c2ccc(F)cc2F)ccc1O : 50

// Peak plasma concentration of parent compound after prodrug compound value for CCN(CC)CCOC(=O)c1ccccc1OC(C)=O [diethylaminoethyl acetylsalicylate.AcOH] : 30

====

Assay: Plasma levels after transdermal administration to hairless mice
Format: in vivo
Settings: mouse, in vivo
Would you mind telling me the reported Peak plasma concentration of parent compound after prodrug compound of each entry?
Provide only the numeric value, understood in mg/L.

// Peak plasma concentration of parent compound after prodrug compound value for CC(=O)O.CCN(CC)CCOC(=O)CCC(=O)c1ccc(-c2ccccc2)cc1 : 2000

// Peak plasma concentration of parent compound after prodrug compound value for CC(=O)O.CCN(CC)CCOC(=O)c1ccccc1O [diethylaminoethyl salicylate.AcOH] : 40

// Peak plasma concentration of parent compound after prodrug compound value for CC(=O)O.CCN(CC)CCOC(=O)C(C)c1ccc2cc(OC)ccc2c1 (stereo not drawn) : 2000

// Peak plasma concentration of parent compound after prodrug compound value for CC(=O)O.CCN(CC)CCOC(=O)C(C)c1ccc(N2CC=CC2)c(Cl)c1 (stereo not drawn) : 2000

// Peak plasma concentration of parent compound after prodrug compound value for CC(=O)O.CCN(CC)CCOC(=O)Cc1ccccc1Oc1ccc(Cl)cc1Cl : 20

// Peak plasma concentration of parent compound after prodrug compound value for CN(C)CCCC(=O)OC1=C(C(=O)Nc2ccccn2)N(C)S(=O)(=O)c2ccccc21.Cl : 20

// Peak plasma concentration of parent compound after prodrug compound value for CC(=O)O.CCN(CC)CCOC(=O)c1ccccc1OC(=O)c1ccccc1O [diethylaminoethyl salicylsalicylate.AcOH] : 40

// Peak plasma concentration of parent compound after prodrug compound value for CC(=O)O.CCN(CC)CCOC(=O)C(C)c1ccc(C(=O)c2ccccc2)s1 (stereo not drawn) : 2000

// Peak plasma concentration of parent compound after prodrug compound value for Cc1cnc(NC(=O)C2=C(OC(=O)CCCN(C)C)c3ccccc3S(=O)(=O)N2C)s1.Cl : 20

====

Assay: Plasma levels after transdermal administration to hairless mice
Format: in vivo
Conditions: mouse, in vivo
readout name: Peak plasma concentration of parent compound after prodrug compound (mg/L)
Provide only the numeric value, understood in mg/L.

// Peak plasma concentration of parent compound after prodrug compound value for CC(=O)O.CCN(CC)CCOC(=O)C(C)c1cccc(C(=O)c2ccccc2)c1 (stereo not shown) : 20

// Peak plasma concentration of parent compound after prodrug compound value for CC(=O)O.CCN(CC)CCOC(=O)COC(=O)Cc1c(C)n(C(=O)c2ccc(Cl)cc2)c2ccc(OC)cc12 : 20

// Peak plasma concentration of parent compound after prodrug compound value for CC(=O)O.CCN(CC)CCOC(=O)C(C)c1ccc(C(=O)c2cccs2)cc1 (stereo not shown) : 2000

// Peak plasma concentration of parent compound after prodrug compound value for CC(=O)O.CCN(CC)CCOC(=O)CC(O)c1ccc(-c2ccc(Cl)cc2)o1 (stereo not shown) : 2000

====

Assay: Plasma levels after transdermal administration to hairless mice
Type: in vivo
Details: mouse, in vivo
Would you mind telling me the reported Peak plasma concentration of parent compound after prodrug compound of each entry?
Write the numeric value and append its unit.

// Peak plasma concentration of parent compound after prodrug compound value for C=CCOc1ccc(CC(=O)OCCN(CC)CC)cc1Cl.CC(=O)O : 20 mg/L

// Peak plasma concentration of parent compound after prodrug compound value for CN(C)CCCC(=O)OC1=C(C(=O)Nc2ccccn2)N(C)S(=O)(=O)c2ccsc21.Cl : 20 mg/L

// Peak plasma concentration of parent compound after prodrug compound value for CC(=O)O.CCN(CC)CCOC(=O)C(C)c1ccc2oc(-c3ccc(Cl)cc3)nc2c1 (centres unmarked) : 2000 mg/L

// Peak plasma concentration of parent compound after prodrug compound value for CC(=O)O.CCN(CC)CCOC(=O)c1ccccc1Nc1c(Cl)ccc(C)c1Cl : 20 mg/L

// Peak plasma concentration of parent compound after prodrug compound value for CC(=O)O.CCN(CC)CCOC(=O)c1cccnc1Nc1cccc(C(F)(F)F)c1C : 20 mg/L

====

Would you mind telling me the reported body temperature, t = 270 min of each entry?
Test system: rats
Experiment: Antipyretic activity, E. coli suspension as pyrogen
Assay type: in vivo
Conditions: 25 mg/kg transdermally; in °C (unit assumed)

// body temperature, t = 270 min value for CN(C)CCCC(=O)OC1=C(C(=O)Nc2ccccn2)N(C)S(=O)(=O)c2ccccc21.Cl : 36.45 ± 0.07

// body temperature, t = 270 min value for CN(C)CCCC(=O)OC1=C(C(=O)Nc2ccccn2)N(C)S(=O)(=O)c2ccsc21.Cl : 36.55 ± 0.05

// body temperature, t = 270 min value for Cc1cnc(NC(=O)C2=C(OC(=O)CCCN(C)C)c3ccccc3S(=O)(=O)N2C)s1.Cl : 36.50 ± 0.07

// body temperature, t = 270 min value for CN(C)CCCC(=O)OC1=C(C(=O)Nc2ccccn2)N(C)S(=O)(=O)c2cc(Cl)sc21.Cl : 36.61 ± 0.07

====

Assay: Plasma levels after transdermal administration to hairless mice
Format: in vivo
Details: parent compound administered, hairless mice
Would you mind telling me the reported Peak plasma concentration after parent compound of each entry?
Provide only the numeric value, understood in mg/L.

// Peak plasma concentration after parent compound value for CC(C(=O)O)c1ccc2c(c1)Cc1cccnc1O2 (centres unmarked) : 10

// Peak plasma concentration after parent compound value for Cc1ccc2c(c1)CC(=O)c1cc(C(C)C(=O)O)ccc1O2 (centres unmarked) [Bermoprofen, bermoprofen, reference compound] : 10

// Peak plasma concentration after parent compound value for C=C(C)CNc1ccc(C(C)C(=O)O)cc1 (centres unmarked) : 10

// Peak plasma concentration after parent compound value for Cc1cnc(NC(=O)C2=C(O)c3ccccc3S(=O)(=O)N2C)s1 [Meloxicam, meloxicam, reference compound] : 0.1

// Peak plasma concentration after parent compound value for O=C(O)c1ccccc1O : 0.1

// Peak plasma concentration after parent compound value for O=C(O)COc1nn(Cc2ccccc2)c2ccccc12 [Bendazac, bendazac, reference compound] : 0.1

// Peak plasma concentration after parent compound value for CC(C(=O)O)c1ccc2c(c1)CC(=O)c1ccccc1S2 (centres unmarked) [Zaltoprofen, zaltoprofen, reference compound] : 10

// Peak plasma concentration after parent compound value for O=C(O)c1cc(-c2ccc(F)cc2F)ccc1O [Diflunisal, 5-(2,4-difluorophenyl) salicylic acid, reference compound] : 0.2

// Peak plasma concentration after parent compound value for O=C(O)Cc1cn(-c2ccccc2)nc1-c1ccc(Cl)cc1 [Lonazolac, lonazolac, reference compound] : 0.1

// Peak plasma concentration after parent compound value for CN1C(C(=O)Nc2ccccn2)=C(O)c2sccc2S1(=O)=O [Tenoxicam, tenoxicam, reference compound] : 0.1

// Peak plasma concentration after parent compound value for CC(C)Cc1ccc(C(C)C(=O)O)cc1 (centres unmarked) [Ibuprofen, 2-(ρ-isobutylphenyl) propionic acid, reference compound] : 2

// Peak plasma concentration after parent compound value for Cc1ccc(C(=O)c2ccc(CC(=O)O)n2C)cc1 : 0.1

// Peak plasma concentration after parent compound value for Cc1c(Nc2ncccc2C(=O)O)cccc1C(F)(F)F [Flunixin, flunixin, reference compound] : 0.1

// Peak plasma concentration after parent compound value for CC(C(=O)O)c1ccc(N2Cc3ccccc3C2=O)cc1 (centres unmarked) : 10

// Peak plasma concentration after parent compound value for O=C(O)c1ccccc1Nc1cccc(C(F)(F)F)c1 : 0.1

// Peak plasma concentration after parent compound value for Cc1cc(NC(=O)C2=C(O)c3ccccc3S(=O)(=O)N2C)no1 [Isoxicam, isoxicam, reference compound] : 0.1

// Peak plasma concentration after parent compound value for CC(C(=O)O)c1ccc(C(=O)c2cccs2)cc1 (centres unmarked) [Suprofen, suprofen, reference compound] : 10

// Peak plasma concentration after parent compound value for Nc1c(CC(=O)O)cccc1C(=O)c1ccccc1 : 0.1

// Peak plasma concentration after parent compound value for O=C(O)Cc1ccccc1Oc1ccc(Cl)cc1Cl : 0.1

// Peak plasma concentration after parent compound value for CC(C(=O)O)c1ccc(N2CC=CC2)c(Cl)c1 (centres unmarked) [Pirprofen, pirprofen, reference compound] : 10

// Peak plasma concentration after parent compound value for C=CCOc1ccc(CC(=O)O)cc1Cl [Alclofenac, alclofenac, reference compound] : 0.1

// Peak plasma concentration after parent compound value for CC(C(=O)O)c1cccc(Oc2ccccc2)c1 (centres unmarked) [Fenoprofen, 2-(3-phenoxyphenyl) propionic acid, reference compound] : 1

// Peak plasma concentration after parent compound value for Cc1ccc(Cl)c(Nc2ccccc2C(=O)O)c1Cl [Meclofenamic acid, meclofenamic acid, reference compound] : 0.1

// Peak plasma concentration after parent compound value for CC(=O)Oc1ccccc1C(=O)O [Aspirin, acetylsalicylic acid, reference compound] : 0.1

// Peak plasma concentration after parent compound value for O=C(O)C(Cl)c1ccc(C2CCCCC2)c(Cl)c1 (centres unmarked) : 10

// Peak plasma concentration after parent compound value for COc1ccc2c(c1)c(CC(=O)OCC(=O)O)c(C)n2C(=O)c1ccc(Cl)cc1 : 0.1
